As shown below, each of these binders has a reported pKd value.
Biological target: GRID2IP_2, A4D2P6
Sequence (A4D2P6 272-370): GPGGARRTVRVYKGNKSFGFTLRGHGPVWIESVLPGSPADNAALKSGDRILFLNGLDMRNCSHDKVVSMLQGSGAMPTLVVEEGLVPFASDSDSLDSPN
Assay: holdup assay
Design: key: below the threshold = too weak to quantify, mostly under pKd 3.1 to 4
Conditions: plain residues with an end cap or a label only (N-terminal biotin on a linker: ado-ado)
endpoint label: pKd

INSERT INTO assay_data (binder, measured) VALUES
  ('SPDRDRESIV [SCN5A, Q14524]', 3.63),
  ('NTANRRTTPV [CACNG2, Q9Y698]', 3.89),
  ('EIPAQSPTCV [FZD10, Q9ULW2]', 3.67),
  ('ILRKSTTTTV [PRR16, Q569H4]', 3.8),
  ('PPGKHLVTEV [KCNA7, Q96RP8]', 4.37);

Provenance of the data: paper PMC9482650
